# System: T1, Bicoid DBD-GST (Bcd) (UniProt P09081 83-170)
# T1 sequence: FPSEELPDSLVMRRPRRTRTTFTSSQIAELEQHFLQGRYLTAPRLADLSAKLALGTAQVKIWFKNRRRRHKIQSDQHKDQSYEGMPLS
# Assay Text: competitive fluorescence anisotropy (HiP-FA); mean of replicates 8.014, 7.5595; HiP-FA: 33 mM phosphate pH 7.0, 90 mM NaCl, 0.01% Tween 20, 0.1 mM DTT, 0.5% agarose; conventional titration and EMSA: 20 mM Tris-acetate pH 7.0, 50 nM (sic) NaCl, 0.01% Tween-20, 0.1 mM DTT
# Reported Conditions: protein: recombinant; tags: N-terminal GST; blunt, G:G mismatch at position 6
Readout Label: Kd (nM)

Binder: Bcd competitor 26 (C9T) (dsDNA) DNA 1: TCGACGGTAATCTCTA DNA 2: TAGAGATTACGGTCGA
Result: 7.79
